target: PKC-γ (Homo sapiens, UniProt P05129)
Endpoint name: IC50

O=C(NCCCO)c1cncc(-c2cncc(Nc3cccc(Cl)c3)n2)c1 [Cmd 39]    > 100 µM

Give measured IC50 for OCCCNc1cncc(-c2cncc(Nc3cccc(Cl)c3)n2)c1 [Cmd 4] (PKC-γ (Homo sapiens, UniProt P05129)).
> 100 µM

Give measured IC50 for OCCCCNc1cncc(-c2cncc(Nc3cccc(Cl)c3)n2)c1 [Cmd 32] (PKC-γ (Homo sapiens, UniProt P05129)).
> 100 µM

* * *

// reported IC50 for each item listed
target: CDK1 (cyclin dependent kinase 1) / cyclin B (Homo sapiens); construct: purchased New England Biolabs 6020; host or cells: insect cells; experiment: CDK1 kinase assay; assay type: biochemical; conditions: Tables 1-3; >10 or >100 = no 50% inhibition at highest dose tested; read-out: CDK IC50
Sequence (P06493 whole entry): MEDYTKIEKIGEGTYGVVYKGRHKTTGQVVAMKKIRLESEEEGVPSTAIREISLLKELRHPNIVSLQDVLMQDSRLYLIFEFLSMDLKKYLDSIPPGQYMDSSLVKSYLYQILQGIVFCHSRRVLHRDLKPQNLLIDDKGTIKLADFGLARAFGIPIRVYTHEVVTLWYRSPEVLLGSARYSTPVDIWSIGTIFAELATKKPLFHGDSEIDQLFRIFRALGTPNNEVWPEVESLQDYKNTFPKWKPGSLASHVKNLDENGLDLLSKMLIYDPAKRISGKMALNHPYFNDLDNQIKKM
Sequence (P14635 whole entry partner): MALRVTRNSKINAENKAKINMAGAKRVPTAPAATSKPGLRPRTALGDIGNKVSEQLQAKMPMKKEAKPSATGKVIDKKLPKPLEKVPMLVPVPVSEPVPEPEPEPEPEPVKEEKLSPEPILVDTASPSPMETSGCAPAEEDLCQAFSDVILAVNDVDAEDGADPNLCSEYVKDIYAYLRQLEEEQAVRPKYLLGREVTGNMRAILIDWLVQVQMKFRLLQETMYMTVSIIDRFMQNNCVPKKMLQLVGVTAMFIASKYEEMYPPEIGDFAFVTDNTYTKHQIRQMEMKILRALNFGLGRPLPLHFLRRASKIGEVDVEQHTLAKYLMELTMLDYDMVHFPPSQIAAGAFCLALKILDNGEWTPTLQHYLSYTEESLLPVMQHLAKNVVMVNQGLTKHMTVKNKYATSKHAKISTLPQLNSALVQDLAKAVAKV

# annotated cases, reported IC50 shown
O=C(CO)Nc1cncc(-c2cncc(Nc3cccc(Cl)c3)n2)c1    > 10 µM
Clc1cccc(Nc2cncc(-c3cncc(NCCOc4ccccc4)c3)n2)c1    > 10 µM
Clc1cccc(Nc2cncc(-c3cncc(NCCCn4ccnc4)c3)n2)c1    > 10 µM
Clc1cccc(Nc2cncc(-c3cncc(NCCCN4CCCCC4)c3)n2)c1    3.24 µM
Nc1cncc(-c2cncc(Nc3cccc(Cl)c3)n2)c1    11.7 µM

Determine from records and report IC50 for Clc1ccc(Nc2cncc(-c3cncc(NCCCc4ccncc4)c3)n2)cc1Cl
> 10 µM

Determine from records and report IC50 for CCOC(=O)CCCNc1cncc(-c2cncc(Nc3cccc(Cl)c3)n2)c1
2.03 µM

Determine from records and report IC50 for CCOC(=O)c1cncc(-c2cncc(Nc3cccc(Cl)c3)n2)c1
> 10 µM

Determine from records and report IC50 for COCCC(=O)Nc1cncc(-c2cncc(Nc3cccc(Cl)c3)n2)c1
> 10 µM

Determine from records and report IC50 for OCCCNc1cnc(Cl)c(-c2cncc(Nc3cccc(Cl)c3)n2)c1
> 10 µM

* * *

// reported IC50 for each item listed
target: VEGF-R (vascular endothelial growth factor receptor-2) (Rattus norvegicus, UniProt O08775); construct: polyhistidine (6xHis) (N); assay: VEGF-R screening assay (33P FlashPlate kinase assay); type: biochemical; conditions: Tables 1-3; >10 or >100 = no 50% inhibition at highest dose tested; read-out: VEGF-R IC50
Sequence (O08775 786-1343): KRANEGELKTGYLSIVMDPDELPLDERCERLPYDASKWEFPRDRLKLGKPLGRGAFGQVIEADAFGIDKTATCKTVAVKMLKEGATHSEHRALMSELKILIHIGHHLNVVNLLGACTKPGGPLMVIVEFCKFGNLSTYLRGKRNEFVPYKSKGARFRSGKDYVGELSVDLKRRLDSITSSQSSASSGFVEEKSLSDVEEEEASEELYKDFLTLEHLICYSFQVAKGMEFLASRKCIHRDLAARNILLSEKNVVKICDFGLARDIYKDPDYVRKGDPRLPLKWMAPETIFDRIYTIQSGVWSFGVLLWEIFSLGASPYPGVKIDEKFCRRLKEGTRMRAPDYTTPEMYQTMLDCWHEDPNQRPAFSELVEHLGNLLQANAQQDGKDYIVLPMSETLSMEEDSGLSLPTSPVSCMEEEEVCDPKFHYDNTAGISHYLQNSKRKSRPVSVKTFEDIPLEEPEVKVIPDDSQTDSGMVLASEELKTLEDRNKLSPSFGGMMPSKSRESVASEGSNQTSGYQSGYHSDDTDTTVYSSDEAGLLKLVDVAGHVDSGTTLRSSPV

# annotated cases, reported IC50 shown
CCOCCCNC(=O)c1cncc(-c2cncc(Nc3cccc(Cl)c3)n2)c1 [Cmd 40]    > 100 µM
N#Cc1ncc(NCCCO)cc1-c1cncc(Nc2cccc(Cl)c2)n1 [Cmd 111]    > 10 µM
OCCCNc1cnc(Cl)c(-c2cncc(Nc3cccc(Cl)c3)n2)c1 [Cmd 110]    > 10 µM

Determine from records and report IC50 for COCCNC(=O)c1cncc(-c2cncc(Nc3cccc(Cl)c3)n2)c1 [Cmd 36]
~10 µM

Determine from records and report IC50 for Clc1cccc(Nc2cncc(-c3cncc(NCCCN4CCN(c5cccc(Cl)c5)CC4)c3)n2)c1 [Cmd 86]
> 10 µM

* * *

target: Casein Kinase 2 (Homo sapiens, UniProt P68400)
Sequence (P68400 whole entry): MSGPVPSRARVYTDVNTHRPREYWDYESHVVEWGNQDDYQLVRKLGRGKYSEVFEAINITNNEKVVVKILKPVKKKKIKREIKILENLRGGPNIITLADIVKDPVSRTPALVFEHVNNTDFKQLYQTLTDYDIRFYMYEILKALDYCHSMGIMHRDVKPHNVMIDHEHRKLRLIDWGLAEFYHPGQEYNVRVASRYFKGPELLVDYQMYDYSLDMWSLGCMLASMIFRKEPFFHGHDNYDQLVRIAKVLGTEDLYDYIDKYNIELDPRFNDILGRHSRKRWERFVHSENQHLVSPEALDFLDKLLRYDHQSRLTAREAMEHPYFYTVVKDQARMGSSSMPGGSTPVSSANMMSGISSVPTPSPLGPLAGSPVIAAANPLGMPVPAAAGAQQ
Sequence (P67870 whole entry partner): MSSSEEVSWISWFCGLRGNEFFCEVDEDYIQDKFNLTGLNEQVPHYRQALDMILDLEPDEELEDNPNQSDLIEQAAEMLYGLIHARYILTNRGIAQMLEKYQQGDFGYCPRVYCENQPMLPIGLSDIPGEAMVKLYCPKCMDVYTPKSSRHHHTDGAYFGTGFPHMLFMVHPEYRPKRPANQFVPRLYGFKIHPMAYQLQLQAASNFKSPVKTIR
// reported IC50 for each item listed

# annotated cases, reported IC50 shown
CN(C)CCCNc1cncc(-c2cncc(Nc3cccc(Cl)c3)n2)c1    > 100 µM
O=C(NCCCO)c1cncc(-c2cncc(Nc3cccc(Cl)c3)n2)c1    ~10 µM

Next item in the queue.
Determine from records and report IC50 for CN(C)CCNc1cncc(-c2cncc(Nc3cccc(Cl)c3)n2)c1
> 100 µM

* * *

target: VEGF-R (vascular endothelial growth factor receptor-2) (Rattus norvegicus, UniProt O08775); construct: polyhistidine (6xHis) (N); assay: VEGF-R screening assay (33P FlashPlate kinase assay); format: biochemical; conditions: Tables 1-3; >10 or >100 = no 50% inhibition at highest dose tested; read-out: VEGF-R IC50
pIC50: −log10 of the molar value.
Answer n if pIC50 is under 6, and y if it is 6 or more.

O=C(CCCOc1ccccc1)Nc1cncc(-c2cncc(Nc3cccc(Cl)c3)n2)c1 [Cmd 100]    n
CN(C)c1ccc(C(=O)Nc2cncc(-c3cncc(Nc4cccc(Cl)c4)n3)c2)cc1 [Cmd 42]    n
Clc1cccc(Nc2cncc(-c3cncc(NCCOc4ccccc4)c3)n2)c1 [Cmd 83]    n
CN(C)CCCNC(=O)c1cncc(-c2cncc(Nc3cccc(Cl)c3)n2)c1 [Cmd 37]    n
Clc1cccc(Nc2cncc(-c3cncc(NCc4ccccc4)c3)n2)c1 [Cmd 82]    n
Clc1cccc(Nc2cncc(-c3cncc(NCCCn4cccn4)c3)n2)c1 [Cmd 75]    y
CC(=O)Nc1ncc(NCCCO)cc1-c1cncc(Nc2cccc(Cl)c2)n1 [Cmd 109]    n
CN(C)CCCNc1cncc(-c2cncc(Nc3cccc(Cl)c3)n2)c1 [Cmd 35]    y

// inclusive: pIC50 at least 6? input: OCCCNc1cncc(-c2cncc(Oc3cccc(Cl)c3)n2)c1 [Cmd 96]
n

// inclusive: pIC50 at least 6? input: O=C(NCCCO)c1cncc(-c2cncc(Nc3cccc(Cl)c3)n2)c1 [Cmd 39]
n

// inclusive: pIC50 at least 6? input: O=C(COCc1ccccc1)Nc1cncc(-c2cncc(Nc3cccc(Cl)c3)n2)c1 [Cmd 101]
n

// inclusive: pIC50 at least 6? input: O=C(COc1ccccc1)Nc1cncc(-c2cncc(Nc3cccc(Cl)c3)n2)c1 [Cmd 99]
n

* * *

biological target: VEGF-R (vascular endothelial growth factor receptor-2) (Rattus norvegicus, UniProt O08775); construct: polyhistidine (6xHis) (N); assay: VEGF-R screening assay (33P FlashPlate kinase assay); type: biochemical; details: Tables 1-3; >10 or >100 = no 50% inhibition at highest dose tested; read-out: VEGF-R IC50
Endpoint name: pIC50
For clarity, pIC50 is expressed as the negative log10 of concentration in mol/L.

# annotated cases, reported pIC50 shown
Clc1ccc(Nc2cncc(-c3cncc(NCCCc4ccncc4)c3)n2)cc1    6.00
O=C(Nc1cncc(-c2cncc(Nc3cccc(Cl)c3)n2)c1)c1cccnc1    5.95

Next item in the queue.
Determine from records and report pIC50 for Nc1ncc(NCCCO)cc1-c1cncc(Nc2cccc(Cl)c2)n1
5.87
